- Experimental System: Phospholipid hydroperoxide glutathione peroxidase GPX4 (Homo sapiens)
- Method Notes: Primary qHTS Assay for Inhibitors of Recombinant Selenoprotein Glutathione Peroxidase 4 (GPX4) (AID 1845192); also: nearly all actives have a fitted effect of over 65% in size
- Particulars: recombinant GPX4, GR-coupled NADPH fluorescence, 15 min; series mostly up to 50 µM
Results filed as inconclusive are left out. Activity calls are given as the source filed them. Calls follow the shape of the dose curve; as a rule, active = well fitted inhibition curve with a large enough effect; inconclusive = small, poorly fitted or top-dose-only effect; inactive = flat fitted curve, though single readings scatter.

# Compound, outcome
rows = [
    ("NC(=O)c1cnccn1", "inactive"),
    ("CCc1ccc(CCOc2ccc(CC3SC(=O)NC3=O)cc2)nc1 (configuration not stated)", "inactive"),
    ("CC1(C)CNc2cc(NC(=O)c3cccnc3NCc3ccncc3)ccc21", "inactive"),
    ("NC[C@H](O)c1ccc(O)c(O)c1", "inactive"),
    ("Nc1nc2c(ncn2COCCO)c(=O)[nH]1", "inactive"),
    ("O=c1n(CCCN2CCN(c3cccc(Cl)c3)CC2)nc2ccccn12", "inactive"),
    ("C[C@]1(c2nc3c(C(N)=O)cccc3[nH]2)CCCN1", "inactive"),
]

---

Listed compounds paired with reported Potency
- Method Notes: Cell Proliferation Assay Versus the ED40515 IL2 Independent ATL cell lines (AID 1053194)
- Particulars: ED40515 IL2-independent ATL cells
- Description: Adult T-cell leukemia (ATL) develops in individuals infected with human T-cell lymphotropic virus-1 (HTLV-1). Clinically, ATL is subclassified into four subtypes: smoldering, chronic, lymphomatous, and acute. Two autocrine loops (IL-2/IL-2Ralpha and IL-15/IL-15Ralpha) and one paracrine stimulation loop that involves IL-9 expression by ATL cells and IL-9Ralpha expression on monocytes are required to maintain viability and proliferation in the smoldering and chronic forms of the disease. […]
Active and inactive are the calls of the source. Calls come from the whole dose curve.

# Compound, Potency
rows = [
    ("CNC(=O)c1ccc(N2C(=S)N(c3ccc(C#N)c(C(F)(F)F)c3)C(=O)C2(C)C)cc1F", "23.5 µM (active)"),
    ("Cc1cc(Nc2nc(N[C@@H](C)c3ncc(F)cn3)ncc2Cl)n[nH]1", "14.8 µM (active)"),
    ("Cc1ccccc1C(C(=O)NC1CCCC1)N(C(=O)Cn1cnc2ccccc21)c1cccc(F)c1 (stereo not given)", "20.9 µM (active)"),
    ("C[C@]12CC[C@H](O)CC1=CC[C@@H]1[C@H]2CC[C@]2(C)C(c3cccnc3)=CC[C@H]12", "26.4 µM (active)"),
    ("C#Cc1cccc(Nc2ncnc3cc(OCCOC)c(OCCOC)cc23)c1", "11.8 µM (active)"),
    ("Cc1ccc2c(c1)C(=O)[C@@]1(O)CCN(c3ccccc3)C1=N2", "13.2 µM (active)"),
    ("CCOc1cc(N2CCC(O)CC2)ccc1Nc1ncc2c(n1)N(C)c1ccccc1C(=O)N2C", "5.26 µM (active)"),
    ("CC1(C)Cc2c(-c3ccccc3)c(-c3ccc(Cl)cc3)c(CC(=O)O)n2C1", "11.8 µM (active)"),
    ("O=C(NOC[C@H](O)CO)c1ccc(F)c(F)c1Nc1ccc(I)cc1F", "33.2 µM (active)"),
    ("Cc1cnc(Nc2ccc(OCCN3CCCC3)cc2)nc1Nc1cccc(S(=O)(=O)NC(C)(C)C)c1", "33.2 µM (active)"),
]

---

- Method Notes: qHTS of pediatric cancer cell lines to identify multiple opportunities for drug repurposing: Primary screen for BT-37 cells (AID 1347094)
- Particulars: BT-37 viability, CellTiter-Glo luminescence, 48 h; series mostly up to 57.3 µM
Records with an inconclusive call do not appear. Calls of active or inactive are those of the source. The call rests on the fitted dose curve; in most records, active means well fitted cell-killing curve with a large enough effect; inconclusive means small, poorly fitted or top-dose-only effect; inactive means flat fitted curve, though single readings scatter.
Outcomes: Yes for active, No for inactive

# Molecule, Discrete Label
rows = [
    ("CS(=O)(=O)Oc1ccc2c(NC(N)=O)c(C(=O)c3ccc(Cl)cc3Cl)oc2c1", "Yes"),
    ("CS(=O)(=O)c1ccc(C(=O)Nc2ccc(Cl)c(-c3ccccn3)c2)c(Cl)c1", "No"),
    ("COc1ccc(-c2oc3cc(OC)ccc3c2C(=O)c2ccc(C#N)cc2)cc1", "Yes"),
    ("COc1cc(F)c(F)c(Nc2ccc(I)cc2F)c1NS(=O)(=O)C1(C[C@H](O)CO)CC1", "No"),
    ("OC(CCN1CCCCC1)(c1ccccc1)C1CC2C=CC1C2 (stereo not given)", "No"),
    ("CS(=O)(=O)c1cccc(CNc2nc(Nc3ccc4c(c3)CCC(=O)N4)ncc2C(F)(F)F)c1", "Yes"),
    ("O=C1CCCC2=C1C(c1[nH]ncc1Cl)N=C(Nc1nc3ccccc3o1)N2 (stereo not given)", "No"),
    ("CNC(=O)c1ccc(N2C(=S)N(c3ccc(C#N)c(C(F)(F)F)c3)C(=O)C2(C)C)cc1F", "No"),
    ("CCOC(=O)C1=C[C@]2(CC)CCCN3CCc4c(n1c1ccccc41)[C@@H]32", "No"),
    ("C[C@]12CCC(=O)C=C1CC[C@@H]1[C@@H]2[C@@H](O)C[C@@]2(C)[C@H]1CC[C@]2(O)C(=O)CO", "No"),
    ("COc1cc(Nc2ncc3c(n2)-c2ccc(Cl)cc2C(c2c(F)cccc2OC)=NC3)ccc1C(=O)O", "No"),
    ("CCCc1nn(C)c2c(=O)[nH]c(-c3cc(S(=O)(=O)N4CCN(C)CC4)ccc3OCC)nc12", "No"),
    ("CC(C)NCC(O)COc1ccc(COCCOC(C)C)cc1 (stereo not given)", "No"),
    ("CCN(CC)CCCC(C)Nc1nc(C)cc(Nc2ccc3nc(C)cc(N)c3c2)n1 (stereo not given)", "No"),
    ("OC(CN1CCC(Cc2ccc(F)cc2)CC1)c1ccc(Cl)cc1 (stereo not given)", "No"),
    ("COc1ccc(-c2ccc3c(N4CCOCC4)nc(N4C[C@@H](C)O[C@@H](C)C4)nc3n2)cc1CO", "Yes"),
    ("C[C@]12CC[C@H](O)CC1=CC[C@@H]1[C@H]2CC[C@]2(C)C(c3cccnc3)=CC[C@H]12", "No"),
    ("COc1nc(-c2ccc3c(c2)OCO3)n(-c2ccc(NC(=O)CSc3ccccc3)cc2)n1", "No"),
    ("C1COC(NC(C2CC2)C2CC2)=N1", "No"),
    ("Oc1ccc(C2CNCCc3c2cc(O)c(O)c3Cl)cc1 (stereo not given)", "No"),
]

---

- Method Notes: High-throughput drug toxicity screening in the BPDCN cell line Gen2.2 (AID 1224824);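 also: cells exposed to compounds for 48 h before reading; 100% = DMSO and 0% = bortezomib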
- Particulars: Gen2.2 BPDCN cells; at 45.8 µM (top of the series) unless noted
Recorded cell viability, % of control (lower = more cytotoxic) by entry
Assay Readout: cell viability, % of control (lower = more cytotoxic) (%)

# Compound, Recorded Measurement
data = [
    ("NCCCC(N)(C(=O)O)C(F)F (configuration not stated)", 77.2),
    ("CC(C)(C)OC(=O)CN(Cc1ccc(Cl)cc1)Cc1ccc([N+](=O)[O-])s1", 18.4),
    ("CC(C)NCC(O)COc1ccc(COCCOC(C)C)cc1 (configuration not stated)", 123),
    ("CC1(C)SCCN(S(=O)(=O)c2ccc(OCC#CCO)cc2)[C@@H]1C(=O)NO", 80),
    ("O=NN(CCCl)C(=O)NCCCl", 114),
    ("O=C1CCCC2=C1C(c1[nH]ncc1Cl)N=C(Nc1nc3ccccc3o1)N2 (configuration not stated)", 73.8),
    ("NNCCc1ccccc1", 133),
]

---

- System: CASKI
- Method Notes: Primary qHTS to identify gynecologic anti-cancer compounds using libraries of approved drugs and bioactive compounds (AID 1345084); also: nearly all actives have a fitted effect of over 55% in size; also: potency is read from the fitted curve at half-maximal effect
- Particulars: Gynecologic cancer cell panel viability, ATPlite luminescence, 48 h; series mostly up to 57.5 µM
Results filed as inconclusive are left out. The source made the active and inactive calls. The call rests on the fitted dose curve; in most records, active means well fitted cell-killing curve with a large enough effect; inconclusive means small, poorly fitted or top-dose-only effect, or effect the other way; inactive means flat fitted curve, though single readings scatter.
Assay Readout: Potency

# Smiles Str, Recorded Measurement
rows = [
    ("O=C(c1cc(Cc2n[nH]c(=O)c3ccccc23)ccc1F)N1CCN(C(=O)C2CC2)CC1", "inactive"),
    ("CNC(=O)c1ccccc1Sc1ccc2c(/C=C/c3ccccn3)n[nH]c2c1", "11.2 µM (active)"),
    ("C[C@]12CCC(=O)C=C1CC[C@@H]1[C@@H]2[C@@H](O)C[C@@]2(C)[C@H]1CC[C@]2(O)C(=O)CO", "inactive"),
    ("CC(C)(Sc1ccc(CCN(CCCCC2CCCCC2)C(=O)NC2CCCCC2)cc1)C(=O)O", "inactive"),
    ("CNC(=O)c1ccc(C)c(-n2c(C)cc(OCc3ccc(F)cc3F)c(Br)c2=O)c1", "inactive"),
]

---

Each record here notes measured max response.
- Test system: NIH3T3
- Method Notes: Cytotoxic Profiling of Annotated Libraries Using Quantitative High-Throughput Screening (AID 1296008); also: % is scaled to controls: 0 for no effect and ±100 for the full control effect; nearly all actives have a fitted effect of over 60% in size
- Particulars: Five cell lines viability, CellTiter-Glo ATP luminescence, 48-72 h; stronger effect = lower value
Inconclusive results are not listed.
Assay Readout: max response (%)

# Compound, Assay Readout, Display Unit, Recorded Measurement
data = [
    ("Cc1cc(C=c2sc3nc4ccccc4n3c2=O)c(C)n1-c1ccccc1", "max response", "%", -1.17),
    ("O=C(O)COCCN1CCN(C(c2ccccc2)c2ccc(Cl)cc2)CC1 (centres undefined)", "max response", "%", -0.466),
    ("N=c1nc(N2CCCCC2)cc(N)n1O", "max response", "%", 3.13),
    ("CC(C)(N)C(=O)N[C@H](COCc1ccccc1)C(=O)N1CCC2(CC1)CN(S(C)(=O)=O)c1ccccc12", "max response", "%", -13.8),
    ("O=C(Nc1ccc(F)c(C(F)(F)F)c1)Nc1nnc(-c2ccncc2)s1", "max response", "%", -1.83),
    ("COc1cc(F)c(F)c(Nc2ccc(I)cc2F)c1NS(=O)(=O)C1(C[C@H](O)CO)CC1", "max response", "%", -9.12),
    ("Nc1nccc(-c2ccc3noc(-c4ccc(Cl)cc4)c3c2)n1", "max response", "%", -8.8),
    ("CCCn1c(=O)c2[nH]c(C34CC5CC3C[C@@H](C5)C4)nc2n(CCC)c1=O", "max response", "%", -0.656),
    ("CCOc1ccc(Cc2cc([C@@H]3O[C@H](CO)[C@@H](O)[C@H](O)[C@@H]3O)ccc2Cl)cc1", "max response", "%", 1.42),
    ("NC(=O)c1ccc(I)c([N+](=O)[O-])c1", "max response", "%", -1.58),
    ("OC[C@H](Cc1ccccc1)Nc1nc(Oc2ccc3c(c2)CCC3)nc2c1ncn2Cc1ccc(-c2ccccc2)cc1", "max response", "%", 1.2),
    ("NC(=O)c1ccc(-c2nc(-c3ccc4c(c3)OCO4)c(-c3ccccn3)[nH]2)cc1", "max response", "%", -25.4),
    ("Cc1[nH]c(=O)c(C#N)cc1-c1ccc2nccn2c1", "max response", "%", -20.6),
    ("NS(=O)(=O)c1cc2c(cc1Cl)NC=NS2(=O)=O", "max response", "%", 3.94),
    ("CCOC(=O)N[C@@H]1CC[C@@H]2[C@@H](C1)C[C@H]1C(=O)O[C@H](C)[C@H]1[C@@H]2C=Cc1ccc(-c2cccc(F)c2)cn1", "max response", "%", -8.03),
    ("CNC(=O)c1ccc(C)c(-n2c(C)cc(OCc3ccc(F)cc3F)c(Br)c2=O)c1", "max response", "%", 2.56),
    ("CNC[C@H](O)c1cccc(O)c1", "max response", "%", 3.51),
    ("Cc1[nH]c(=O)c(C#N)cc1-c1ccncc1", "max response", "%", 0.936),
    ("O=C1CCC(N2C(=O)c3ccccc3C2=O)C(=O)N1 (centres undefined)", "max response", "%", -0.804),
    ("CC(c1cc2ccccc2s1)N(O)C(N)=O (centres undefined)", "max response", "%", 3.52),
    ("CCc1cc(Nc2nccc(-c3c(-c4ccc(OC)c(C(=O)Nc5c(F)cccc5F)c4)nc4ccccn34)n2)c(OC)cc1N1CCC(N2CCN(S(C)(=O)=O)CC2)CC1", "max response", "%", -25.3),
    ("C[C@]12CCC(=O)C=C1CC[C@@H]1[C@@H]2[C@@H](O)C[C@@]2(C)[C@H]1CC[C@]2(O)C(=O)CO", "max response", "%", 1.04),
    ("COc1ccc([C@@H]2CC(=O)c3c(O)cc(O[C@@H]4O[C@H](CO[C@@H]5O[C@@H](C)[C@H](O)[C@@H](O)[C@@H]5O)[C@@H](O)[C@H](O)[C@@H]4O)cc3O2)cc1O", "max response", "%", 2.09),
    ("C[C@@H]1CN(Cc2ccc(F)cc2)[C@@H](C)CN1C(=O)c1cc2c(C(=O)C(=O)N(C)C)cn(C)c2cc1Cl", "max response", "%", 1.1),
    ("Cc1c(CCOc2ccc(C(=O)O)cc2)c2cc(Cl)ccc2n1C(c1ccccc1)c1ccccc1", "max response", "%", -32.3),
    ("CNC(=O)c1ccc(N2C(=S)N(c3ccc(C#N)c(C(F)(F)F)c3)C(=O)C2(C)C)cc1F", "max response", "%", -6.26),
    ("NCCCC(N)(C(=O)O)C(F)F (centres undefined)", "max response", "%", -17.4),
    ("CC1(C)SCCN(S(=O)(=O)c2ccc(OCC#CCO)cc2)[C@@H]1C(=O)NO", "max response", "%", -11.8),
    ("Fc1ccc(Cl)cc1-c1nc(Nc2ccncc2)c2nccnc2n1", "max response", "%", -15.4),
    ("COc1ccc(CCN2CCN(CCCc3ccccc3)CC2)cc1OC", "max response", "%", 1.46),
    ("COc1nc(-c2ccc3c(c2)OCO3)n(-c2ccc(NC(=O)CSc3ccccc3)cc2)n1", "max response", "%", -26.7),
    ("CCCc1nc2c(C)cc(-c3nc4ccccc4n3C)cc2n1Cc1ccc(-c2ccccc2C(=O)O)cc1", "max response", "%", 1.27),
    ("CS(=O)(=O)Oc1ccc2c(NC(N)=O)c(C(=O)c3ccc(Cl)cc3Cl)oc2c1", "max response", "%", -0.156),
    ("COc1ccc(CC2=NN3C([C@@H](CCc4ccccc4)[C@@H](C)O)=NC(C)C3C(=O)N2)cc1OC (some centres undefined)", "max response", "%", 0.654),
    ("CCCS(=O)(=O)Nc1ccc(F)c(C(=O)c2c[nH]c3ncc(Cl)cc23)c1F", "max response", "%", -18.6),
    ("Nc1nc2ccc(OC(F)(F)F)cc2s1", "max response", "%", -3.98),
    ("NC(=O)c1ccc(-c2nc(-c3ccc4c(c3)OCCO4)c(-c3ccccn3)[nH]2)cc1", "max response", "%", -6.71),
    ("N#Cc1ccc(C(c2ccc(C#N)cc2)n2cncn2)cc1", "max response", "%", 2.6),
    ("CCOc1cc(C(=O)Nc2ccc(Cl)c(-c3nc4ccccc4[nH]3)c2)cc(OCC)c1OCC", "max response", "%", -3.49),
]

These entries and their values trace back to PubChem BioAssay (NCATS).
